- Tested on: normal primary NK cells, pool 1 (3 donors), resting (IL-2 0 ng/mL);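 further: normalised to DMSO-only wells as negative and benzethonium chloride as positive control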
- method_notes: percent inhibition of viability; higher = more inhibition
- measurement_conditions: 72 h; 1000 nM
endpoint_name: percent inhibition of viability (%)
Please state the figure in %; there is no need to write the unit.

Here are 2 compounds together with their reported answers.
COc1cc2ncnc(Nc3ccc(F)c(Cl)c3)c2cc1NC(=O)/C=C/CN1CCCCC1 [Dacomitinib] (max concentration tested 1000 nM)
59.7
Nc1cccc2c1C(=O)N(C1CCC(=O)NC1=O)C2=O (stereo not drawn) [Pomalidomide] (max concentration tested 10000 nM)
-20.7

Consider now this further compound.
Ask | Dear colleague, I am looking for the recorded percent inhibition of viability of the following compound: Cc1c(C(=O)Nc2ccc(N3C[C@@H](C)O[C@@H](C)C3)nc2)cccc1-c1ccc(OC(F)(F)F)cc1 [Sonidegib] (max concentration tested 10000 nM)
Reply | -23.8

From: the supplement of paper PMC5908809
